Measured self-aminoacylation values are reported for all entries that follow.
tested on: biotinyl-Ile-oxazolone; assay: self-aminoacylation, catalytic enhancement (BIO) (fold over background); higher = more active; k-Seq, kA / k0A0; sequences stand for … in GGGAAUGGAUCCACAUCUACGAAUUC…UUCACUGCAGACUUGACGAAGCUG
Fewer inactive variants are shown than the library holds.

query: Identify self-aminoacylation associated with the sequence AUUACUCUGGUCCUCGAGUGA [Fam2.1 aminoacylation ribozyme variant]
result: 2.31

query: Give the measured self-aminoacylation for AUUACCCUGGCCAUCGAGUGA [Fam2.1 aminoacylation ribozyme variant]
result: 2.05

query: Return the recorded self-aminoacylation value; entry: ACGAUUGCUAAUAGUCGCAAG [Fam3.1 aminoacylation ribozyme variant]
result: 1.35

query: Find the measured self-aminoacylation of CUAUUUCAAACAAUCGGUCUG [Fam1A.1 aminoacylation ribozyme variant] and report it.
result: 0.819

query: Supply reported self-aminoacylation belonging to this sequence: CUUACCCUUGUCAUCGAGUGA [Fam2.1 aminoacylation ribozyme variant]
result: 2.56

Continuing:
query: Annotate the sequence CUAUUUCAAACCAUCGGUCUG [Fam1A.1 aminoacylation ribozyme variant] with its measured self-aminoacylation.
result: 1.03

query: Provide only the value of recorded self-aminoacylation for AUUCGCCUAGGUCGUCGGGUG [Fam2.2 aminoacylation ribozyme variant]
result: 1.56

query: For the sequence CCACACUUUAAGCAAUGGGUC [Fam1B.1 aminoacylation ribozyme variant] , report self-aminoacylation.
result: 0.696

query: Supply reported self-aminoacylation belonging to this sequence: AUUACCCUGGGCAUCGGGUGA [Fam2.1 aminoacylation ribozyme variant]
result: 5.62
